Each entry below carries its reported Kd.
# System Name: PhoQ^SD (periplasmic sensor domain of PhoQ) (Salmonella enterica, UniProt P0DM80)
# Construct: periplasmic sensor domain (residues 45-188 as aligned; exact construct borders in supplement), His-tagged, pET28a, E. coli BL21, Ni-NTA purified, dimer by native-PAGE
# Sequence (P0DM80 45-188): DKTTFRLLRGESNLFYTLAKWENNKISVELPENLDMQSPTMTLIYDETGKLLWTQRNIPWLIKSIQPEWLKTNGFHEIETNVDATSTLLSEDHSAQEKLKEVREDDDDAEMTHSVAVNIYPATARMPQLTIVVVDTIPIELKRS
# Assay Comment: microscale thermophoresis
# Type: binding
Please state the figure in µM; there is no need to write the unit.

CC(C)(O/N=C(\C(=O)N[C@@H]1C(=O)N2C(C(=O)[O-])=C(C[n+]3ccccc3)CS[C@H]12)c1csc(N)n1)C(=O)O
25.6

Next compound, please.
Kd measured on CCn1cc(C(=O)O)c(=O)c2ccc(C)nc21 = 24.7
